# TARGET OR SYSTEM: NAD-dependent protein deacetylase sirtuin-2 (Homo sapiens)
# Sequence (whole entry): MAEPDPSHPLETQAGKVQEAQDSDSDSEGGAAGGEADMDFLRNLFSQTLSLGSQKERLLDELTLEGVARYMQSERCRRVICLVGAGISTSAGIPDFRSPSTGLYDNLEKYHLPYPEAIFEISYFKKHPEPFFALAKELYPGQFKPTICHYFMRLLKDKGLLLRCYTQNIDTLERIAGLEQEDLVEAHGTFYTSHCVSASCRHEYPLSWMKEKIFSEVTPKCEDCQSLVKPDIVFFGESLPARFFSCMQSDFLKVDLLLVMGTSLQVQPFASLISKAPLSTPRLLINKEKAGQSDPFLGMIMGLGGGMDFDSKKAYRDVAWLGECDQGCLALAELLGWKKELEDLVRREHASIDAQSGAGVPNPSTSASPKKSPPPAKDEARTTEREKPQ
# PROTOCOL: Inhibition of SIRT2 in human HCT116 cells assessed as increase in alpha-tubulin acetylation at 25 uM incubated for 6 hrs by DAPI staining-based laser scanning confocal microscopic analysis
# Format: cell-based
Activity calls are given as the source filed them. No cut-off for these calls is given here.
API: response.call in active, inactive

Answered cases to consult:
Field: outcome | Entry: CCCCCNC(=S)NCCCC[C@H](NC(=O)OCc1ccccc1)C(=O)Nc1cccc(O)c1
active

Can you look up the reported call for CCCCCCCCCCNC(=S)NCCCC[C@H](NC(=O)OCc1ccccc1)C(=O)Nc1ccccc1 for me?
active

For CCCCCCCCNC(=S)NCCCC[C@H](NC(=O)OCc1ccccc1)C(=O)Nc1ccccc1 , which call appears in the assay record?
active

More entries:
Could you check what this test reported for CCCCCCCCCCNC(=S)NCCCC[C@H](NC(=O)OCc1ccccc1)C(=O)Nc1cccc(O)c1 ?
active

How was CCCNC(=S)NCCCC[C@H](NC(=O)OCc1ccccc1)C(=O)Nc1cccc(O)c1 classified in this test?
inactive
